# EXPERIMENTAL SYSTEM: Kappa-type opioid receptor (Cavia porcellus)
# Sequence (P41144 whole entry): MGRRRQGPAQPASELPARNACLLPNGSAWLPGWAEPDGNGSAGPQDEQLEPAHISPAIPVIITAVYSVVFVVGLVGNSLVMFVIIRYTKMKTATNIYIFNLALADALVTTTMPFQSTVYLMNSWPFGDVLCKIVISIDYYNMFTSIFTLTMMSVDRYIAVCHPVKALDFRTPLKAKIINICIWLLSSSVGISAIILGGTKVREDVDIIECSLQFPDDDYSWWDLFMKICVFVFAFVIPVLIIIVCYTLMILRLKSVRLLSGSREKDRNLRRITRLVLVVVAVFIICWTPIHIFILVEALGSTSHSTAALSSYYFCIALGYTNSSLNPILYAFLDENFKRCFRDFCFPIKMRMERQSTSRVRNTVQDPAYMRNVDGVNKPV
Square brackets hold non-standard residues; d marks the D form. Peptide text beside a SMILES is read from it. dNle = CCCC[C@@H](N)C(=O)O
Ki for assorted molecules
QUANTITY KIND: Ki (nM)

CCCC[C@@H](NC(=O)[C@@H](Cc1cccc(F)c1)NC(=O)[C@H](N)Cc1ccccc1)C(=O)N[C@H](CCCNC(=N)N)C(N)=O
3
CCCC[C@@H](NC(=O)[C@@H](Cc1ccccc1)NC(=O)[C@H](N)Cc1ccccc1)C(=O)N[C@H](CCCNC(=N)N)C(N)=O (H-[dF][dF][dNle][dR]-NH2)
2.33
CCCC[C@@H](NC(=O)[C@@H](Cc1ccccc1)NC(=O)[C@H](N)Cc1ccc(O)cc1)C(=O)N[C@H](CCCNC(=N)N)C(N)=O
1.11
